Reference source for all entries: patent US11236046B2

# measured on: human TRPA1 (Homo sapiens (Human))
# Sequence (O75762 whole entry): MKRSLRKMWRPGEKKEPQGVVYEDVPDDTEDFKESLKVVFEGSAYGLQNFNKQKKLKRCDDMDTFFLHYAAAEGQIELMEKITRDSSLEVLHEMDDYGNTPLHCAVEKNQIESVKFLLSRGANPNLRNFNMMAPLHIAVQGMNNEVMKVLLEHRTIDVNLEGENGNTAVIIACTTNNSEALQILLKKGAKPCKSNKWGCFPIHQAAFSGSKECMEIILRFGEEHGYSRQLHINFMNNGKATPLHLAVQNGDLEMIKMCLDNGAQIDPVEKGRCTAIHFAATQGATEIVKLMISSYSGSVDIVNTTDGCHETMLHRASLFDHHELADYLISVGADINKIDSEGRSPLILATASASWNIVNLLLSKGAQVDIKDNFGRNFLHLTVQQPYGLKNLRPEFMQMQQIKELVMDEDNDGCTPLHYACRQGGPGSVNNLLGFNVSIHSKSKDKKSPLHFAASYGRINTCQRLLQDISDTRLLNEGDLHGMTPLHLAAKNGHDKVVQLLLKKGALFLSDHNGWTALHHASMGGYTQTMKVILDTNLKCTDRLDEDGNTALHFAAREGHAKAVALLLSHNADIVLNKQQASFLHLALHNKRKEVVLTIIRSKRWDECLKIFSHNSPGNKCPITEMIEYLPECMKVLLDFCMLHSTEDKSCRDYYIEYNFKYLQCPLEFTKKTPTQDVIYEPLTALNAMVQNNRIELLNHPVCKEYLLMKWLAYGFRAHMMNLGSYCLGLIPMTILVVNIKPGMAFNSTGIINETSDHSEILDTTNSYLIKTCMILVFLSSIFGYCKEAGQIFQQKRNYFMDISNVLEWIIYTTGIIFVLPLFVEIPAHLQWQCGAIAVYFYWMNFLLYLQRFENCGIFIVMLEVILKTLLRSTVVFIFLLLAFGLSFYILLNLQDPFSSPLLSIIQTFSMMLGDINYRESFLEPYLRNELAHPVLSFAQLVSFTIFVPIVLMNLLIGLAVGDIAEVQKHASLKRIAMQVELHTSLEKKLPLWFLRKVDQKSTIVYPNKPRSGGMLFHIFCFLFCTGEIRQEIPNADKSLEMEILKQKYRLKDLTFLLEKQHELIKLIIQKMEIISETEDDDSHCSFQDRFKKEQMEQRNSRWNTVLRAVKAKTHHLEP
# experimental protocol: FLIPR Tetra calcium influx assay, block of cinnamaldehyde-induced calcium influx in CHO cells expressing TRPA1 (human)
# Type: cell-based
# assay conditions: 20 min compound incubation, 75 uM cinnamaldehyde (~EC80), Hill coefficient fixed to 1.5, read-out: hTRPA1 AUC IC50
pIC50: −log10 of the molar value.
Mark Not fulfilled for pIC50 values under 7, and Fulfilled for everything at or above.

> print(dat)
                                   compound  classification
1  O=C(NCc1cc(-c2ccc(C(F)(F)F)nc2)ccc1F)[C@@H]1C[C@@H](F)CN1S(=O)(=O)c1ccc(F)cc1       Fulfilled
2  O=C(NCc1cc(F)cc(C2CCC(C(F)(F)F)CN2)c1)[C@@H]1C[C@@H](F)CN1S(=O)(=O)c1ccc(F)cc1 (stereo partly shown)   Not fulfilled
3  C[C@@]1(F)C[C@@H](C(=O)NCc2cc(F)cc(-c3cnc(C(F)(F)F)nc3)c2)N(S(=O)(=O)c2ccc(F)cc2)C1       Fulfilled
4  N#Cc1cnc(-c2ccc(C(F)(F)F)cc2)cc1CNC(=O)[C@@H]1C[C@@H](F)CN1S(=O)(=O)c1ccc(F)cc1       Fulfilled
5  O=C(NCc1cc(-c2ccc(C(F)(F)F)c(F)c2)ncn1)[C@@H]1[C@@H](F)CCN1S(=O)(=O)c1ccc(F)cc1       Fulfilled
6  C[C@@H]1[C@@H](C(=O)NCc2cc(-c3ccc(C(F)(F)F)nc3)ncn2)N(S(=O)(=O)c2ccc(F)cc2)C[C@@H]1F (single isomer, unassigned)   Not fulfilled

# check: pIC50 of "C[C@@]1(F)C[C@@H](C(=O)NCc2cc(F)cc(-c3cnc(C(F)(F)F)cn3)c2)N(S(=O)(=O)c2ccc(F)cc2)C1" is greater than or equal to 7
Fulfilled

Kindly determine if pIC50 recorded for "O=C(NCc1cc(-c2ccc(SC(F)(F)F)cc2)ncn1)[C@@H]1C[C@@H](F)CN1S(=O)(=O)c1ccc(F)cc1" is above or exactly 7.
Fulfilled

API: above_or_equal(metric=pIC50, cutoff=7) for item "N#Cc1nn(-c2ccc(C(F)(F)F)cc2)cc1CNC(=O)[C@@H]1C[C@@H](F)CN1S(=O)(=O)c1ccc(F)cc1"
Fulfilled
